# Tested on: 5-Lipoxygenase
# Assay overview: 5-Lox assay (colorimetric, ferric xylenol orange)
# Type: biochemical
# Applied conditions: 100 μM test substance; linoleic acid substrate, pH 6.3
Where a name gives a salt, the structure may show the parent alone.
Entry flag: fulfilled if % inhibition @ 100 μM reaches 30%; not fulfilled if it does not.

Enquiry: Hi, just wondering whether C[C@@H]1CC[C@]2(C)CC[C@]3(C)C(=CC(=O)C4[C@@]5(C)CC[C@@H](OC(=O)CN)[C@](C)(C(=O)O)C5CC[C@]43C)C2[C@H]1C (some centres unmarked) [Compound 10, hydrochloride] shows % inhibition @ 100 μM of 30% or higher.
Return: not fulfilled

Enquiry: Hi, just wondering whether C[C@H](N)C(=O)O[C@@H]1CC[C@@]2(C)C(CC[C@]3(C)C2C(=O)C=C2C4[C@@H](C)[C@H](C)CC[C@]4(C)CC[C@]23C)[C@@]1(C)C(=O)O (some centres unmarked) [Compound 11, hydrochloride] shows % inhibition @ 100 μM of 30% or higher.
Return: fulfilled

Enquiry: Hi, just wondering whether CC(=O)OC1CC[C@@]2(C)C(CC[C@]3(C)C2C(=O)C=C2C4[C@@H](C)[C@H](C)CC[C@]4(C)CC[C@]23C)[C@@]1(C)C(=O)OCCN(C)C (some centres unmarked) [Compound 18] shows % inhibition @ 100 μM of 30% or higher.
Return: not fulfilled

Enquiry: Hi, just wondering whether COc1cc(C(=O)O[C@@H]2CC[C@@]3(C)C(CC[C@]4(C)C3C(=O)C=C3C5[C@@H](C)[C@H](C)CC[C@]5(C)CC[C@]34C)[C@@]2(C)C(=O)O)cc(O)c1O (some centres unmarked) [Compound 3] shows % inhibition @ 100 μM of 30% or higher.
Return: not fulfilled

Enquiry: Hi, just wondering whether CC(=O)OC1CCC2(C)C(CCC3(C)C2C(=O)C=C2C4C(C)C(C)CCC4(C)CCC23C)C1(C)C(=O)N1CCNCC1 (centres unmarked) [Compound 23] shows % inhibition @ 100 μM of 30% or higher.
Return: fulfilled

Cited source for all entries: patent US20090318551A1
